TEST: Induction of Kcl-induced cytosolic calcium ion concentration in mouse DRG neurons in response to Kcl at 10 microg/ml measured after 1 hr by Fura2AM dye based fluorescence microscopic analysis
Format: functional, Neuron
CONDITION_LABEL: dose 10 µg/ml
Hi! Could you tag entries with Activity below 20% as YES, and those at or above as NO? Much appreciated.

>>> category("C[C@H](CC[C@@H](O)C(C)(C)O)[C@H]1CC[C@H]2[C@@H]3C(=O)C=C4C[C@H](O)CC[C@]4(C)[C@H]3CC[C@]12C")
"NO"
>>> category("C[C@H](CC[C@H](O)C(C)(C)O)[C@H]1CC[C@H]2[C@@H]3C(=O)C=C4C[C@@H](O)CC[C@]4(C)[C@H]3CC[C@]12C")
"YES"
>>> category("C[C@H](CCC(=O)C(C)(C)O)[C@H]1CC[C@H]2[C@@H]3C(=O)C=C4C=CCC[C@]4(C)[C@H]3CC[C@]12C")
"NO"
>>> category("CC(C)C(=O)CC[C@@H](C)[C@H]1CC[C@H]2[C@@H]3C(=O)C=C4C=CCC[C@]4(C)[C@H]3CC[C@]12C")
"YES"
>>> category("C[C@H](CC[C@@H](O)C(C)(C)O)[C@H]1CC[C@H]2[C@@H]3C(=O)C=C4C=CCC[C@]4(C)[C@H]3CC[C@]12C")
"NO"

* * *

TARGET_ENTITY: GABA-A receptor; alpha-1/beta-3/gamma-2 (Homo sapiens, UniProt P14867+P18507+P28472)
Sequence (P14867 whole entry): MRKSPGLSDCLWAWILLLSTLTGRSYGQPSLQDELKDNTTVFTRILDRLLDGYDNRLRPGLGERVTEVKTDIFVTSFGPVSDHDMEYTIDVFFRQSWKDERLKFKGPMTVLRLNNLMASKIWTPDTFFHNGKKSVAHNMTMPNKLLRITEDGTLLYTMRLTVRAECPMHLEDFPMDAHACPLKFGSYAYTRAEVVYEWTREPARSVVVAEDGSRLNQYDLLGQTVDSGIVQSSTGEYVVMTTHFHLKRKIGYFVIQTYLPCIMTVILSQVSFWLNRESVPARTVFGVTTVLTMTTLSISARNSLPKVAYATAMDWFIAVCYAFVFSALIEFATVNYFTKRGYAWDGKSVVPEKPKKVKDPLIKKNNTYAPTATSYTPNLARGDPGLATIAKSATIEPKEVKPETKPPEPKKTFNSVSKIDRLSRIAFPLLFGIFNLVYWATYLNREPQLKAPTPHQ
Sequence (P18507 whole entry): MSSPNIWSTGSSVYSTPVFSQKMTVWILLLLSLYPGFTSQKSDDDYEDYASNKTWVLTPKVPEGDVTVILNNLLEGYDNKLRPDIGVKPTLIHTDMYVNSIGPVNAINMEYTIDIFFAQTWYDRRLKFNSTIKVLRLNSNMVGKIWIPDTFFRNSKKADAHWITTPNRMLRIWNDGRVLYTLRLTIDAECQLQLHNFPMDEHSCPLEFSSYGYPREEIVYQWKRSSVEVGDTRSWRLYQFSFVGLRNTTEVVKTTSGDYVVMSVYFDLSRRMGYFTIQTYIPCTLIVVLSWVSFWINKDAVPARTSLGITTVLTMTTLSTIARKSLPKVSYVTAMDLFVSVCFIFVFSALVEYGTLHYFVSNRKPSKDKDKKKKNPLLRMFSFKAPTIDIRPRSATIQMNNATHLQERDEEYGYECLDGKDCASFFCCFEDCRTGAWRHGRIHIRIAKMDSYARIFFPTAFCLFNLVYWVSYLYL
Sequence (P28472 whole entry): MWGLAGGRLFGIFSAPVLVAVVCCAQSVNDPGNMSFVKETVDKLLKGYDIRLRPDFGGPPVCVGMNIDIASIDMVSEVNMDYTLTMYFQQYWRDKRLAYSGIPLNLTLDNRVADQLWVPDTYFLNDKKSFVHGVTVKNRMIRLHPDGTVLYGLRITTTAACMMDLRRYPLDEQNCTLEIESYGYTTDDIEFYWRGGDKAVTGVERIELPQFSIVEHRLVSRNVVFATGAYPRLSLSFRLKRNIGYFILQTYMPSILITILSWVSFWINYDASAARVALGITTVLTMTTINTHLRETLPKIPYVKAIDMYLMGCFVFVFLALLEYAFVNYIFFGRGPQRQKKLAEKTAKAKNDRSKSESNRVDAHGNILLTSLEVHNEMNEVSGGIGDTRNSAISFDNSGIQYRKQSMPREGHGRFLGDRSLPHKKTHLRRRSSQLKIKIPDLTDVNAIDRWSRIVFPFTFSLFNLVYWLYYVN
TEST: Negative allosteric modulation activity at human GABAA alpha1beta3gamma2 stably expressed in HEK cells by whole cell patch clamp method
Type: cell-based
RECORDED_ENDPOINT: IC50

>>> reported_value("CC(C)CCC[C@@H](C)[C@H]1CC[C@H]2[C@@H]3C(=O)C=C4C=CCC[C@]4(C)[C@H]3CC[C@]12C")
"21 µM"
